Catalogue of molecules with associated EC50
subject_of_test: GluN2B glutamate receptors (Homo sapiens, UniProt Q05586+Q13224)
Construct: expressed in transfected cells; host or cells: mammalian cells (line not described for GluN2B)
Sequence (Q13224 27-1484, other chains not shown): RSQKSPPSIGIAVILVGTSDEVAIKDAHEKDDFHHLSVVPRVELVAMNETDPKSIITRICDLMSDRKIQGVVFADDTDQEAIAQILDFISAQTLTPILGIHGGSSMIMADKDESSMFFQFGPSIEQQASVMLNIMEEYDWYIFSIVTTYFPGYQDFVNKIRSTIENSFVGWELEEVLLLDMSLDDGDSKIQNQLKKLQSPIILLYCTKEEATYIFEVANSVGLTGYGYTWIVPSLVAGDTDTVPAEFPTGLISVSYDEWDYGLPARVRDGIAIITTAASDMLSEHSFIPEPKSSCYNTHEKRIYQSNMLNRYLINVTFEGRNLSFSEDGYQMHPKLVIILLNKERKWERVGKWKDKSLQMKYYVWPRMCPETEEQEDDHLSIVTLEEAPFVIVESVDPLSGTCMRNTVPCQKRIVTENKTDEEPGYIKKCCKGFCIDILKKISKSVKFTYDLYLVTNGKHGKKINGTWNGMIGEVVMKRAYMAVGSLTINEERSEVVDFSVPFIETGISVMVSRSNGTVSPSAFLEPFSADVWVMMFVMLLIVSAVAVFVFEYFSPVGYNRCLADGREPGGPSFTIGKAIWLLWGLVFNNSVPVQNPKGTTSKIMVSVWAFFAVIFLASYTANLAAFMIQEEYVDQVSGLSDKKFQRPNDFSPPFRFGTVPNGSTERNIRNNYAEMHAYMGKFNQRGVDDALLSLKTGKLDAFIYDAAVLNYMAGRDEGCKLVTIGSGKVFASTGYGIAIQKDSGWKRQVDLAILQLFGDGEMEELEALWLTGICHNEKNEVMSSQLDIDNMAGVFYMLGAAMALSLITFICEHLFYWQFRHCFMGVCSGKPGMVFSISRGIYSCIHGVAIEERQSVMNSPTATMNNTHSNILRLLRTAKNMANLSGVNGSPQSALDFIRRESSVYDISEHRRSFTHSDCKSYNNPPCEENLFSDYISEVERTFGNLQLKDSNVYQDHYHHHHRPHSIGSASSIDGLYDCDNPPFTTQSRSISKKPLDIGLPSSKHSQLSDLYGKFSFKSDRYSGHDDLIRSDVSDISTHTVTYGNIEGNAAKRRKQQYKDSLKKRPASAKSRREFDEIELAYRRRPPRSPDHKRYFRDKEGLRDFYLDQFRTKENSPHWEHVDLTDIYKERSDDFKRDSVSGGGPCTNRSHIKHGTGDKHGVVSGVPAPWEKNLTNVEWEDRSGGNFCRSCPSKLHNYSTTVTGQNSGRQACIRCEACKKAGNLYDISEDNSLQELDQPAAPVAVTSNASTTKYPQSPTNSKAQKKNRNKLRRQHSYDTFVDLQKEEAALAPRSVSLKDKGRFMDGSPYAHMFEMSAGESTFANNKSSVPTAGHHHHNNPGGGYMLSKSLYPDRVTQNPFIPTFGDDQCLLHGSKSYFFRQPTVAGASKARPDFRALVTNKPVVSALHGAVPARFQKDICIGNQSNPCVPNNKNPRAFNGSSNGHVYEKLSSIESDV
assay_comment: Whole-cell patch clamp of mammalian cells (Ionworks Barracuda), positive allosteric modulation (PAM) of NMDA receptor, 2B
Type: cell-based
details: co-application with EC20 L-glutamate and 30 µM glycine; 8-point concentration-response

// below: answered molecules
>  <molecule>
CC[C@]1(O)CC[C@H]2C(=CC[C@@H]3[C@@H]2CC[C@]2(C)[C@@H]([C@H](C)CCCC4(O)CCC(C)(C)CC4)CC[C@@H]32)C1 [Compound 10317]

>  <subject_of_test>
GluN2B glutamate receptors (Homo sapiens, UniProt Q05586+Q13224)

>  <measurement>
> 10 µM

$$$$
>  <molecule>
C[C@H](O)CCC[C@@H](C)[C@H]1CC[C@H]2[C@@H]3CC[C@H]4C[C@](O)(C(F)(F)F)CC[C@]4(C)[C@H]3CC[C@]12C [Compound 2113]

>  <subject_of_test>
GluN2B glutamate receptors (Homo sapiens, UniProt Q05586+Q13224)

>  <measurement>
0.413 µM

$$$$

Then this molecule:
State the recorded EC50 for this entry: C[C@H](CCC1(O)CCC(C(C)(C)C)CC1)[C@H]1CC[C@H]2[C@@H]3CC[C@H]4C[C@](O)(C(F)(F)F)CC[C@]4(C)[C@H]3CC[C@]12C (stereo partly drawn) [Compound 4360] > 10 µM

Source listed as patent EP3529257B1.
